experiment: BSK_LPS_SRB: Viability Assessment in the BioMAP Diversity Plus: LPS Assay (AID 2283079); settings: primary human HUVEC with PBMC;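 note: total protein by sulforhodamine B absorbance as a cytotoxicity measure; measured one day after compound addition; fitted in both directions against DMSO so loss or gain of signal counts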
Activity calls are given as the source filed them. Rule for the calls: active = hit-call score of the fitted dose curve at least 0.9, where 1 is the maximum; inactive = score below 0.9.
Your response should consist of one outcome taken from True (active), False (inactive)

stdin: Kindly provide the recorded test outcome for the following molecule: CCCN(CCC)c1c([N+](=O)[O-])cc(C(F)(F)F)cc1[N+](=O)[O-]
stdout: False

stdin: Kindly provide the recorded test outcome for the following molecule: O=C(O)COc1ccc(Cl)cc1Cl
stdout: False

stdin: Kindly provide the recorded test outcome for the following molecule: COC(=O)c1ccccc1S(=O)(=O)NC(=O)N(C)c1nc(C)nc(OC)n1
stdout: False

stdin: Kindly provide the recorded test outcome for the following molecule: [2H]C1([2H])[n+]2ccccc2-c2cccc[n+]2C1([2H])[2H]
stdout: False

stdin: Kindly provide the recorded test outcome for the following molecule: CC(C)OC(=O)Nc1cccc(Cl)c1
stdout: True

stdin: Kindly provide the recorded test outcome for the following molecule: N#CN
stdout: False

stdin: Kindly provide the recorded test outcome for the following molecule: Cc1[nH]c(=O)n(C(C)(C)C)c(=O)c1Cl
stdout: False

stdin: Kindly provide the recorded test outcome for the following molecule: CC1(C)C(C=C(Cl)Cl)C1C(=O)OC(C#N)c1ccc(F)c(Oc2ccccc2)c1 (stereo unspecified)
stdout: True

stdin: Kindly provide the recorded test outcome for the following molecule: Oc1ccc(Cl)cc1Cc1ccccc1
stdout: True

stdin: Kindly provide the recorded test outcome for the following molecule: COP(=S)(OC)Oc1ccc([N+](=O)[O-])cc1
stdout: True

stdin: Kindly provide the recorded test outcome for the following molecule: C#CCN1C(=O)COc2cc(F)c(N3C(=O)C4=C(CCCC4)C3=O)cc21
stdout: False

stdin: Kindly provide the recorded test outcome for the following molecule: CNC(=O)Oc1ccccc1OC(C)C
stdout: False

stdin: Kindly provide the recorded test outcome for the following molecule: ClC1C(Cl)C(Cl)C(Cl)C(Cl)C1Cl (stereo unspecified)
stdout: False

stdin: Kindly provide the recorded test outcome for the following molecule: N#Cc1c(Cl)c(Cl)c(Cl)c(C#N)c1Cl
stdout: True

stdin: Kindly provide the recorded test outcome for the following molecule: O=[N+]([O-])c1c(Cl)c(Cl)c(Cl)c(Cl)c1Cl
stdout: False

stdin: Kindly provide the recorded test outcome for the following molecule: CCN(CC)C(=O)SCc1ccc(Cl)cc1
stdout: False

stdin: Kindly provide the recorded test outcome for the following molecule: CCOCN(C(=O)CCl)c1c(C)cccc1CC
stdout: True

stdin: Kindly provide the recorded test outcome for the following molecule: CNC(=O)/C=C(\C)OP(=O)(OC)OC
stdout: False

stdin: Kindly provide the recorded test outcome for the following molecule: O=C1c2ccccc2C(=O)N1SC(Cl)(Cl)Cl
stdout: True

stdin: Kindly provide the recorded test outcome for the following molecule: CCS(=O)(=O)c1cccnc1S(=O)(=O)NC(=O)Nc1nc(OC)cc(OC)n1
stdout: False

stdin: Kindly provide the recorded test outcome for the following molecule: CC1(c2ccc(Oc3ccccc3)cc2)OC(=O)N(Nc2ccccc2)C1=O (stereo unspecified)
stdout: True

stdin: Kindly provide the recorded test outcome for the following molecule: CN1CSC(=S)N(C)C1
stdout: False

stdin: Kindly provide the recorded test outcome for the following molecule: O=C(Nc1ccccc1)Nc1cnns1
stdout: False

stdin: Kindly provide the recorded test outcome for the following molecule: COC(=O)c1ccccc1CS(=O)(=O)NC(=O)Nc1nc(OC)cc(OC)n1
stdout: False

stdin: Kindly provide the recorded test outcome for the following molecule: CC(C)(C)C(O)C(Oc1ccc(Cl)cc1)n1cncn1 (stereo unspecified)
stdout: False

stdin: Kindly provide the recorded test outcome for the following molecule: Clc1ccccc1-c1nnc(-c2ccccc2Cl)nn1
stdout: False

----------
read-out: xenobiotic metabolism (CYP1A2), CYP1A2 (gene 1544); assay: CLD_CYP1A2_6hr: CellzDirect (CLD) Gene Expression Assay for xenobiotic metabolism (CYP1A2) at 6 hours (AID 2283663)
Results filed as inconclusive are left out. Active and inactive are the calls of the source. The calls were made as follows: active = hit-call score of the fitted dose curve at least 0.9, where 1 is the maximum; inconclusive = response in the unintended direction; inactive = score below 0.9.
Your response should consist of one outcome taken from active, inactive

stdin: Kindly provide the recorded test outcome for the following compound: COP(=S)(OC)Oc1ccc(SC)c(C)c1
stdout: active

stdin: Kindly provide the recorded test outcome for the following compound: CCS(=O)(=O)c1cccnc1S(=O)(=O)NC(=O)Nc1nc(OC)cc(OC)n1
stdout: inactive

stdin: Kindly provide the recorded test outcome for the following compound: CCN(CC)C(=O)SCc1ccc(Cl)cc1
stdout: inactive

stdin: Kindly provide the recorded test outcome for the following compound: CC(C)N(C(=O)COc1nnc(C(F)(F)F)s1)c1ccc(F)cc1
stdout: inactive

stdin: Kindly provide the recorded test outcome for the following compound: CCC(C)Nc1c([N+](=O)[O-])cc(C(C)(C)C)cc1[N+](=O)[O-] (stereo not given)
stdout: active

stdin: Kindly provide the recorded test outcome for the following compound: CCOCN(C(=O)CCl)c1c(C)cccc1CC
stdout: inactive

stdin: Kindly provide the recorded test outcome for the following compound: CNC(=O)Oc1cccc(N=CN(C)C)c1
stdout: inactive

stdin: Kindly provide the recorded test outcome for the following compound: O=C(NC(=O)c1c(F)cccc1F)Nc1ccc(OC(F)(F)C(F)OC(F)(F)F)c(Cl)c1 (stereo not given)
stdout: inactive

stdin: Kindly provide the recorded test outcome for the following compound: CCC(C)(NC(=O)c1cc(Cl)c(C)c(Cl)c1)C(=O)CCl (stereo not given)
stdout: inactive

stdin: Kindly provide the recorded test outcome for the following compound: COC(=O)c1ccccc1S(=O)(=O)NC(=O)Nc1nc(C)nc(OC)n1
stdout: inactive

stdin: Kindly provide the recorded test outcome for the following compound: O=C(O)CCCOc1ccc(Cl)cc1Cl
stdout: inactive

stdin: Kindly provide the recorded test outcome for the following compound: Cc1[nH]c(=O)n(C(C)(C)C)c(=O)c1Cl
stdout: inactive

stdin: Kindly provide the recorded test outcome for the following compound: COc1nn(CSP(=S)(OC)OC)c(=O)s1
stdout: active

stdin: Kindly provide the recorded test outcome for the following compound: COP(=O)(OC)OC=C(Cl)Cl
stdout: inactive

stdin: Kindly provide the recorded test outcome for the following compound: CN1CSC(=S)N(C)C1
stdout: inactive

stdin: Kindly provide the recorded test outcome for the following compound: O=S(=O)(O)C(F)(F)C(F)(F)C(F)(F)C(F)(F)C(F)(F)C(F)(F)C(F)(F)C(F)(F)F
stdout: inactive

stdin: Kindly provide the recorded test outcome for the following compound: CNC(=O)/C=C(\C)OP(=O)(OC)OC
stdout: inactive

stdin: Kindly provide the recorded test outcome for the following compound: CC(C)(C)C(O)/C(=C\c1ccc(Cl)cc1Cl)n1cncn1 (stereo not given)
stdout: inactive

stdin: Kindly provide the recorded test outcome for the following compound: COP(=S)(OC)Oc1ccc([N+](=O)[O-])cc1
stdout: active

stdin: Kindly provide the recorded test outcome for the following compound: CNC(=O)Oc1ccccc1OC(C)C
stdout: inactive

stdin: Kindly provide the recorded test outcome for the following compound: CC1(C)C(C=C(Cl)Cl)C1C(=O)OC(C#N)c1ccc(F)c(Oc2ccccc2)c1 (stereo not given)
stdout: inactive

stdin: Kindly provide the recorded test outcome for the following compound: OCCOc1ccccc1
stdout: inactive

stdin: Kindly provide the recorded test outcome for the following compound: CC(C)OC(=O)Nc1cccc(Cl)c1
stdout: active

stdin: Kindly provide the recorded test outcome for the following compound: [2H]C1([2H])[n+]2ccccc2-c2cccc[n+]2C1([2H])[2H]
stdout: inactive

stdin: Kindly provide the recorded test outcome for the following compound: N#Cc1c(Cl)c(Cl)c(Cl)c(C#N)c1Cl
stdout: active

----------
target: GAL4 Transcription Factor (Internal Marker), GAL4 (gene 855828); assay: ATG_GAL4_XSP2: Attagene TRANS-FACTORIAL Multi-Species (XSP2) HepG2 Assay for GAL4 Transcription Factor (Internal Marker) (AID 2283814);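 note: GAL4 reporter mRNA background control in MRTU transfected cells not a receptor target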
Inconclusive results are not listed. Calls of active or inactive are those of the source. Rule for the calls: active = hit-call score of the fitted dose curve at least 0.9, where 1 is the maximum; inconclusive = response in the unintended direction; inactive = score below 0.9.
Your response should consist of one outcome taken from active, inactive

stdin: Kindly provide the recorded test outcome for the following compound: COP(=S)(OC)Oc1ccc(SC)c(C)c1
stdout: inactive

stdin: Kindly provide the recorded test outcome for the following compound: Oc1ccc(Cl)cc1Cc1ccccc1
stdout: inactive

stdin: Kindly provide the recorded test outcome for the following compound: CCCN(CCC)c1c([N+](=O)[O-])cc(C(F)(F)F)cc1[N+](=O)[O-]
stdout: inactive

stdin: Kindly provide the recorded test outcome for the following compound: Oc1cc(Cl)ccc1Oc1ccc(Cl)cc1Cl
stdout: active

----------
experiment: ATG_PBREM_CIS: Attagene CIS-FACTORIAL HepG2 Assay for human Phenobarbital-responsive Enhancer Module (PBREM) (AID 2282955); settings: HepG2 PBREM cis-reporter, Attagene multiplexed transcription; actives raise or lower the signal
Active and inactive are the calls of the source. How the source made its calls: active means hit-call score of the fitted dose curve at least 0.9, where 1 is the maximum; inactive means score below 0.9.
Your response should consist of one outcome taken from true (1) for active, false (0) for inactive

stdin: Kindly provide the recorded test outcome for the following compound: [2H]C1([2H])[n+]2ccccc2-c2cccc[n+]2C1([2H])[2H]
stdout: false (0)

stdin: Kindly provide the recorded test outcome for the following compound: CCc1ccc(C(=O)NN(C(=O)c2cc(C)cc(C)c2)C(C)(C)C)cc1
stdout: false (0)

stdin: Kindly provide the recorded test outcome for the following compound: COc1cc(OC)nc(NC(=O)NS(=O)(=O)c2cc(NC=O)ccc2C(=O)N(C)C)n1
stdout: false (0)

stdin: Kindly provide the recorded test outcome for the following compound: CNC(=O)/C=C(\C)OP(=O)(OC)OC
stdout: false (0)

stdin: Kindly provide the recorded test outcome for the following compound: N#Cc1c(Cl)c(Cl)c(Cl)c(C#N)c1Cl
stdout: false (0)

stdin: Kindly provide the recorded test outcome for the following compound: CC(C)(C)C(O)/C(=C\c1ccc(Cl)cc1Cl)n1cncn1 (stereo not drawn)
stdout: false (0)

stdin: Kindly provide the recorded test outcome for the following compound: CCOc1nc(NC)nc(NC(=O)NS(=O)(=O)c2ccccc2C(=O)OC)n1
stdout: false (0)

stdin: Kindly provide the recorded test outcome for the following compound: COP(=S)(OC)Oc1ccc([N+](=O)[O-])cc1
stdout: false (0)

stdin: Kindly provide the recorded test outcome for the following compound: C[C@H]1[C@H](c2ccc(Cl)cc2)SC(=O)N1C(=O)NC1CCCCC1
stdout: true (1)

stdin: Kindly provide the recorded test outcome for the following compound: O=[N+]([O-])c1c(Cl)c(Cl)c(Cl)c(Cl)c1Cl
stdout: false (0)

stdin: Kindly provide the recorded test outcome for the following compound: CN1CSC(=S)N(C)C1
stdout: false (0)

stdin: Kindly provide the recorded test outcome for the following compound: O=[N+]([O-])/N=C1\NCCN1Cc1ccc(Cl)nc1
stdout: false (0)

stdin: Kindly provide the recorded test outcome for the following compound: COc1nn(CSP(=S)(OC)OC)c(=O)s1
stdout: true (1)

stdin: Kindly provide the recorded test outcome for the following compound: N#CN
stdout: false (0)

stdin: Kindly provide the recorded test outcome for the following compound: CCCN(CCC)c1c([N+](=O)[O-])cc(C(F)(F)F)cc1[N+](=O)[O-]
stdout: false (0)

stdin: Kindly provide the recorded test outcome for the following compound: CC1(c2ccc(Oc3ccccc3)cc2)OC(=O)N(Nc2ccccc2)C1=O (stereo not drawn)
stdout: false (0)

stdin: Kindly provide the recorded test outcome for the following compound: O=C(Nc1ccccc1)Nc1cnns1
stdout: false (0)

stdin: Kindly provide the recorded test outcome for the following compound: OCCOc1ccccc1
stdout: false (0)

stdin: Kindly provide the recorded test outcome for the following compound: C#CCN1C(=O)COc2cc(F)c(N3C(=O)C4=C(CCCC4)C3=O)cc21
stdout: false (0)

stdin: Kindly provide the recorded test outcome for the following compound: CNC(=O)Oc1cccc(N=CN(C)C)c1
stdout: false (0)

stdin: Kindly provide the recorded test outcome for the following compound: CC[C@H](C)[C@H]1O[C@]2(C=C[C@@H]1C)C[C@@H]1C[C@@H](C/C=C(\C)[C@@H](O[C@H]3C[C@H](OC)[C@@H](O[C@H]4C[C@H](OC)[C@@H](O)[C@H](C)O4)[C@H](C)O3)[C@@H](C)/C=C/C=C3\CO[C@@H]4[C@H](O)C(C)=C[C@@H](C(=O)O1)[C@]34O)O2 (tested in a mixture with another compound)
stdout: false (0)

stdin: Kindly provide the recorded test outcome for the following compound: COP(=S)(OC)Oc1ccc(SC)c(C)c1
stdout: true (1)

stdin: Kindly provide the recorded test outcome for the following compound: O=C1c2ccccc2C(=O)N1SC(Cl)(Cl)Cl
stdout: false (0)

Taken from PubChem BioAssay (EPA / NIEHS).
